target: UniProt P07943; assay: In vitro inhibitory activity against aldose reductase of rat lens at 10E-8 M concentration
METRIC: inhibition
Answer with the number, then the unit.

Solved entries:
>>> df
                  compound_structure_string  result
0  COc1ccc(C(=O)c2cc(C(=O)c3ccc(OC)cc3)n(CC(=O)O)c2)cc1     59%
1  O=C(O)Cn1cc(C(=O)c2ccccc2)cc1C(=O)c1ccccc1     27%
2       O=C(O)Cn1ccc(C(=O)c2ccc3ccccc3c2)c1     49%

# evaluate next
IN: State the recorded inhibition for this entry: "COc1ccc(C(=O)c2cc(C(=O)c3ccccc3)n(CC(=O)O)c2)cc1"
OUT: 13%

---

For each record, write down the corresponding Relative florescence.
biological target: Albumin (Bos taurus, UniProt P02769); experiment: Glycation-induced fluorescence changes of bovine serum albumin when exposed to fructose (1 mM); p<0.001; format: functional; settings: cattle
Sequence (P02769 whole entry): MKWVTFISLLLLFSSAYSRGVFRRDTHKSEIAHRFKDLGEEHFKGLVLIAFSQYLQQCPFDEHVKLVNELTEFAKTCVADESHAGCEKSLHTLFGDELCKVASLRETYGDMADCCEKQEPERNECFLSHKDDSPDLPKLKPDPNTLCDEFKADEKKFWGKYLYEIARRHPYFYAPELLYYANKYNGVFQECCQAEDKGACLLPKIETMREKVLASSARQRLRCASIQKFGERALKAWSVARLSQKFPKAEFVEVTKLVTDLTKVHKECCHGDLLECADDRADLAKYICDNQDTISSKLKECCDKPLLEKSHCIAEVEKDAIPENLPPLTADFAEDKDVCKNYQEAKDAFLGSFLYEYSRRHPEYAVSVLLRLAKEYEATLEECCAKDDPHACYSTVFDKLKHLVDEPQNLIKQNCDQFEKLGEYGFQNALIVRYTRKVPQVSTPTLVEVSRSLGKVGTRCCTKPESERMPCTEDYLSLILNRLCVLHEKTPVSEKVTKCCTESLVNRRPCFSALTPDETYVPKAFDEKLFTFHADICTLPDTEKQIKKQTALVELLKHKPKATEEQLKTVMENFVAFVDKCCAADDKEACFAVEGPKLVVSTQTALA
Numbers only.

                                  molecule                metric  measured_number
0  O=C(O)Cn1ccc(C(=O)c2ccn(-c3ccccc3)c2)c1  Relative florescence               21

Take each entry in turn and give its Relative florescence.
1. COc1ccc(C(=O)c2cc(C(=O)c3ccc(OC)cc3)n(CC(=O)O)c2)cc1
2. Cc1c(C)c2c(c(C)c1O)CCC(C)(C(=O)O)O2 (centres undefined)
3. O=C(O)Cn1ccc(C(=O)c2ccc(-n3cccc3)cc2)c1

OUT:
1: 17.3; 2: 12.8; 3: 17.4

---

target: Aldo-keto reductase family 1 member B1 (Rattus norvegicus) (UniProt P07943); assay: In vitro inhibitory activity against aldose reductase of rat lens at 10E-7 M concentration
METRIC: inhibition (%)
One number for each entry, in %.

Take each entry in turn and give its inhibition.
1. O=C(O)Cn1cc(C(=O)c2ccccc2)cc1C(=O)c1ccccc1
2. COc1ccc(C(=O)c2cc(C(=O)c3ccc(OC)cc3)n(CC(=O)O)c2)cc1
3. O=C(O)Cn1ccc(C(=O)c2ccn(-c3ccccc3)c2)c1
4. O=C(O)Cn1ccc(C(=O)c2ccc3ccccc3c2)c1
5. O=C(O)Cn1ccc(C(=O)c2cccc3ccccc23)c1
6. COc1ccc(C(=O)c2ccn(CC(=O)O)c2)cc1
7. O=C(O)Cn1ccc(C(=O)c2ccc(-c3ccccc3)cc2)c1
8. COc1ccc(C(=O)c2cc(C(=O)c3ccccc3)n(CC(=O)O)c2)cc1

OUT:
1: 62; 2: 94; 3: 39; 4: 72; 5: 59; 6: 26; 7: 37; 8: 51

IN: State the recorded inhibition for this entry: "O=C(O)Cn1ccc(C(=O)c2ccc(-n3cccc3)cc2)c1"
OUT: 39

---

molecular target: UniProtKB P07943; assay: In vitro inhibitory activity against aldose reductase of rat lens at 10E-6 M concentration
Decide by inhibition: equal to or exceeding 40% means yes, less means no.

Solved cases (4 shown):
>>> df
                  compound_structure_string      assay_system  discrete_label
0   O=C(O)Cn1ccc(C(=O)c2ccc(-n3cccc3)cc2)c1  UniProtKB P07943             yes
1          Cc1ccc(C(=O)c2ccn(CC(=O)O)c2)cc1  UniProtKB P07943             yes
2            O=C(O)Cn1ccc(C(=O)Cc2ccccc2)c1  UniProtKB P07943              no
3  COc1ccc(C(=O)c2cc(C(=O)c3ccc(OC)cc3)n(CC(=O)O)c2)cc1  UniProtKB P07943             yes

IN: Check the entry "COc1ccc(C(=O)c2ccn(CC(=O)O)c2)cc1" : does inhibition equal or exceed 40%?
OUT: yes

IN: Check the entry "Cn1cc(C(=O)c2ccn(CC(=O)O)c2)c2ccccc21" : does inhibition equal or exceed 40%?
OUT: no

IN: Check the entry "O=C(O)Cn1ccc(C(=O)c2ccccc2)c1" : does inhibition equal or exceed 40%?
OUT: no

IN: Check the entry "COc1ccc(C(=O)c2cc(C(=O)c3ccccc3)n(CC(=O)O)c2)cc1" : does inhibition equal or exceed 40%?
OUT: yes

IN: Check the entry "O=C(O)Cn1ccc(C(=O)c2ccc3ccccc3c2)c1" : does inhibition equal or exceed 40%?
OUT: yes

IN: Check the entry "O=C(O)Cn1ccc(C(=O)c2ccc(O)cc2)c1" : does inhibition equal or exceed 40%?
OUT: yes

IN: Check the entry "O=C(O)Cn1cc(C(=O)c2ccccc2)c2ccccc21" : does inhibition equal or exceed 40%?
OUT: no

IN: Check the entry "O=C(O)Cn1ccc(C(=O)c2ccc([N+](=O)[O-])cc2)c1" : does inhibition equal or exceed 40%?
OUT: no

IN: Check the entry "O=C(O)Cn1cc(C(=O)c2ccccc2)cc1C(=O)c1ccccc1" : does inhibition equal or exceed 40%?
OUT: yes

IN: Check the entry "O=C(O)Cn1ccc(Cc2ccccc2)c1" : does inhibition equal or exceed 40%?
OUT: no

IN: Check the entry "O=C(O)Cn1ccc(C(=O)c2ccc3c(c2)CCO3)c1" : does inhibition equal or exceed 40%?
OUT: yes

IN: Check the entry "O=C(O)Cn1ccc(C(=O)c2ccc(C(F)(F)F)cc2)c1" : does inhibition equal or exceed 40%?
OUT: yes

---

target: Albumin (Bos taurus); test: Glycation-induced fluorescence changes of bovine serum albumin when exposed to fructose (5 mM); p<0.001; type: functional; details: cattle
METRIC: Relative florescence
Answers are plain numbers.

Solved entries:
>>> df
                  compound_structure_string  measured_number
0   O=C(O)Cn1ccc(C(=O)c2ccc(-n3cccc3)cc2)c1              4.7
1  COc1ccc(C(=O)c2cc(C(=O)c3ccc(OC)cc3)n(CC(=O)O)c2)cc1              3.3
2  COc1ccc(C(=O)c2cc(C(=O)c3ccccc3)n(CC(=O)O)c2)cc1              6.9

# evaluate next
IN: State the recorded Relative florescence for this entry: "O=C(O)Cn1ccc(C(=O)c2ccn(-c3ccccc3)c2)c1"
OUT: 16.4

---

For each record, write down the corresponding inhibition.
target: Aldo-keto reductase family 1 member B1 (Rattus norvegicus) (UniProt P07943); assay: In vitro inhibitory activity against aldose reductase of rat lens at 10E-6 M concentration
Numbers only, in %.

>>> df
                  compound_structure_string  measured_number
0   CC(C)(C)c1ccc(C(=O)c2ccn(CC(=O)O)c2)cc1               41
1        O=C(O)Cn1ccc(C(=O)c2ccc3occc3c2)c1               40
2       O=C(O)Cn1ccc(C(=O)c2cccc3ccccc23)c1               58
3         O=C(O)Cn1ccc(C(=O)c2cccc(Cl)c2)c1               44
4  O=C(O)Cn1ccc(C(=O)c2ccc(-c3ccccc3)cc2)c1               76
5         O=C(O)Cn1ccc(C(=O)c2ccc(Cl)cc2)c1               41

# evaluate next
IN: State the recorded inhibition for this entry: "O=C(O)Cn1ccc(C(=O)c2ccn(-c3ccccc3)c2)c1"
OUT: 67
